- Tested on: lung cancer (SK-MES-1) cells
- test: Antiproliferative assay (MTT reduction), SK-MES-1 cells
- Assay type: cell-based, human
- conditionParameters: Homo sapiens, 72 h; SK-MES-1 lung cancer cells; 3 days treatment; MTT; mean ± SD
pIC50: −log10 of the molar value.
endpointLabel: pIC50

>  <compound>
CC(C)c1ccc2c(c1)CCC1[C@](C)(COC(=O)CCc3cn(-c4cccc(Cl)c4)nn3)CCC[C@]21C (stereo partly drawn)

>  <measuredTarget>
lung cancer (SK-MES-1) cells

>  <endpointLabel>
pIC50

>  <ltGtEq>
<

>  <observedMeasurement>
4.00

$$$$
>  <compound>
CC(C)c1ccc2c(c1)CCC1[C@](C)(C(=O)OCc3cn(-c4ccccc4)nn3)CCC[C@]21C (stereo partly drawn)

>  <measuredTarget>
lung cancer (SK-MES-1) cells

>  <endpointLabel>
pIC50

>  <ltGtEq>
=

>  <observedMeasurement>
4.11

$$$$
>  <compound>
CC(C)c1ccc2c(c1)CCC1[C@](C)(C(=O)OCc3cn(CSc4ccccc4)nn3)CCC[C@]21C (stereo partly drawn)

>  <measuredTarget>
lung cancer (SK-MES-1) cells

>  <endpointLabel>
pIC50

>  <ltGtEq>
<

>  <observedMeasurement>
4.00

$$$$
>  <compound>
CC(C)c1ccc2c(c1)CCC1[C@](C)(COC(=O)CCCCc3cn(-c4ccccc4)nn3)CCC[C@]21C (stereo partly drawn)

>  <measuredTarget>
lung cancer (SK-MES-1) cells

>  <endpointLabel>
pIC50

>  <ltGtEq>
<

>  <observedMeasurement>
4.00

$$$$
>  <compound>
CC(C)c1ccc2c(c1)CCC1[C@](C)(COC(=O)CCCCc3cn(Cc4ccccc4)nn3)CCC[C@]21C (stereo partly drawn)

>  <measuredTarget>
lung cancer (SK-MES-1) cells

>  <endpointLabel>
pIC50

>  <ltGtEq>
=

>  <observedMeasurement>
4.43

$$$$
>  <compound>
CC(C)c1ccc2c(c1)CCC1[C@](C)(COC(=O)CCc3cn(CSc4ccccc4)nn3)CCC[C@]21C (stereo partly drawn)

>  <measuredTarget>
lung cancer (SK-MES-1) cells

>  <endpointLabel>
pIC50

>  <ltGtEq>
=

>  <observedMeasurement>
4.36

$$$$
>  <compound>
CC(C)c1ccc2c(c1)CCC1[C@](C)(COC(=O)CCc3cn(Cc4ccccc4)nn3)CCC[C@]21C (stereo partly drawn)

>  <measuredTarget>
lung cancer (SK-MES-1) cells

>  <endpointLabel>
pIC50

>  <ltGtEq>
=

>  <observedMeasurement>
4.40

$$$$
>  <compound>
COc1ccc(-n2cc(CCC(=O)OC[C@]3(C)CCC[C@]4(C)c5ccc(C(C)C)cc5CCC34)nn2)cc1 (stereo partly drawn)

>  <measuredTarget>
lung cancer (SK-MES-1) cells

>  <endpointLabel>
pIC50

>  <ltGtEq>
<

>  <observedMeasurement>
4.00

$$$$
>  <compound>
CC(C)c1ccc2c(c1)CCC1[C@](C)(COC(=O)CCc3cn(-c4ccccc4)nn3)CCC[C@]21C (stereo partly drawn)

>  <measuredTarget>
lung cancer (SK-MES-1) cells

>  <endpointLabel>
pIC50

>  <ltGtEq>
=

>  <observedMeasurement>
5.21

$$$$

====

Known pIC50 of a selection of compounds
- System: bladder carcinoma (J82) cells
- test: Antiproliferative assay (MTT reduction), J82 cells
- Assay type: cell-based, human
- conditionParameters: Homo sapiens, 72 h; J82 bladder carcinoma cells; 3 days treatment; MTT; mean ± SD
pIC50: −log10 of the molar value.
endpointLabel: pIC50

>  <compound>
CC(C)c1ccc2c(c1)CCC1[C@](C)(COC(=O)CCc3cn(CSc4ccccc4)nn3)CCC[C@]21C (stereo partly shown)

>  <observedMeasurement>
4.30

$$$$
>  <compound>
COc1ccc(-n2cc(CCCCC(=O)OC[C@]3(C)CCC[C@]4(C)c5ccc(C(C)C)cc5CCC34)nn2)cc1 (stereo partly shown)

>  <observedMeasurement>
< 4.00

$$$$
>  <compound>
COc1ccc(-n2cc(CCC(=O)OC[C@]3(C)CCC[C@]4(C)c5ccc(C(C)C)cc5CCC34)nn2)cc1 (stereo partly shown)

>  <observedMeasurement>
< 4.00

$$$$
>  <compound>
CC(C)c1ccc2c(c1)CCC1[C@](C)(C(=O)OCc3cn(CSc4ccccc4)nn3)CCC[C@]21C (stereo partly shown)

>  <observedMeasurement>
< 4.00

$$$$

====

Known pIC50 of a selection of molecules
- System: bladder carcinoma (J82) cells
- test: Antiproliferative assay (MTT reduction), J82 cells
- Assay type: cell-based, human
- conditionParameters: Homo sapiens, 72 h; J82 bladder carcinoma cells; 3 days treatment; MTT; mean ± SD
pIC50: −log10 of the molar value.
endpointLabel: pIC50

>  <molecule>
CC(C)c1ccc2c(c1)CCC1[C@](C)(COC(=O)CCCCc3cn(CSc4ccccc4)nn3)CCC[C@]21C (stereo partly shown) [Compound 10]

>  <ltGtEq>
=

>  <observedMeasurement>
4.47

$$$$
>  <molecule>
CC(C)c1ccc2c(c1)CCC1[C@](C)(C(=O)OCCc3cn(-c4ccccc4)nn3)CCC[C@]21C (stereo partly shown) [Compound 2]

>  <ltGtEq>
=

>  <observedMeasurement>
4.12

$$$$
>  <molecule>
CC(C)c1ccc2c(c1)CCC1[C@](C)(COC(=O)CCc3cn(Cc4ccccc4)nn3)CCC[C@]21C (stereo partly shown) [Compound 7]

>  <ltGtEq>
=

>  <observedMeasurement>
4.59

$$$$
>  <molecule>
CC(C)c1ccc2c(c1)CCC1[C@](C)(C(=O)OCCc3cn(CSc4ccccc4)nn3)CCC[C@]21C (stereo partly shown) [Compound 4]

>  <ltGtEq>
=

>  <observedMeasurement>
4.55

$$$$
>  <molecule>
CC(C)c1ccc2c(c1)CCC1[C@](C)(COC(=O)CCc3cn(-c4cccc(Cl)c4)nn3)CCC[C@]21C (stereo partly shown) [Compound 13]

>  <ltGtEq>
<

>  <observedMeasurement>
4.00

$$$$
>  <molecule>
CC(C)c1ccc2c(c1)CCC1[C@](C)(COC(=O)CCCCc3cn(Cc4ccccc4)nn3)CCC[C@]21C (stereo partly shown) [Compound 8]

>  <ltGtEq>
=

>  <observedMeasurement>
4.57

$$$$
>  <molecule>
CC(C)c1ccc2c(c1)CCC1[C@](C)(COC(=O)CCCCc3cn(-c4ccccc4)nn3)CCC[C@]21C (stereo partly shown) [Compound 6]

>  <ltGtEq>
<

>  <observedMeasurement>
4.00

$$$$
>  <molecule>
CC(C)c1ccc2c(c1)CCC1[C@](C)(C(=O)OCc3cn(-c4ccccc4)nn3)CCC[C@]21C (stereo partly shown) [Compound 1]

>  <ltGtEq>
=

>  <observedMeasurement>
4.33

$$$$
>  <molecule>
Cc1ccc(S(=O)(=O)n2cc(CCC(=O)OC[C@]3(C)CCC[C@]4(C)c5ccc(C(C)C)cc5CCC34)nn2)cc1 (stereo partly shown) [Compound 15]

>  <ltGtEq>
<

>  <observedMeasurement>
4.00

$$$$
>  <molecule>
Cc1ccc(S(=O)(=O)n2cc(CCCCC(=O)OC[C@]3(C)CCC[C@]4(C)c5ccc(C(C)C)cc5CCC34)nn2)cc1 (stereo partly shown) [Compound 16]

>  <ltGtEq>
=

>  <observedMeasurement>
4.12

$$$$
>  <molecule>
COc1cc([C@@H]2c3cc4c(cc3[C@@H](O[C@@H]3O[C@@H]5CO[C@@H](C)O[C@H]5[C@H](O)[C@H]3O)[C@H]3COC(=O)[C@H]23)OCO4)cc(OC)c1O [Etoposide, reference compound]

>  <ltGtEq>
=

>  <observedMeasurement>
5.46

$$$$
>  <molecule>
CC(C)c1ccc2c(c1)CCC1[C@](C)(COC(=O)CCc3cn(-c4ccccc4)nn3)CCC[C@]21C (stereo partly shown) [Compound 5]

>  <ltGtEq>
=

>  <observedMeasurement>
4.08

$$$$
>  <molecule>
CC(C)c1ccc2c(c1)CCC1[C@](C)(COC(=O)CCCCc3cn(-c4cccc(Cl)c4)nn3)CCC[C@]21C (stereo partly shown) [Compound 14]

>  <ltGtEq>
<

>  <observedMeasurement>
4.00

$$$$
